tested.on: SHP-2 PTP domain GST fusion protein (Homo sapiens)
assay.protocol: in vitro protein tyrosine phosphatase assay, SHP-2 (Malachite Green)
study.conditions: read-out: IC50 SHP2
endpoint: IC50 (µM)
Response body: numeric value in µM, unit text excluded.

Reported IC50, compound Cc1cc(C)c2[nH]c3nc(SCC(=O)Nc4cccc5ccccc45)nnc3c2c1 : ____
13.9

====

tested.on: SHP-2 PTP domain GST fusion protein (Homo sapiens)
assay.protocol: in vitro protein tyrosine phosphatase assay, SHP-2 (Malachite Green)
Type: biochemical
Set-up: SHP-2 PTP domain GST fusion protein purified in house was used as the enzyme; made in house
study.conditions: compound at 100 μM; read-out: inhibition of SHP-2 enzymatic activity
Documented inhibition at 100 µM across a set of compounds
Give the quantity in %, number only.

O=C(CCCn1c(=O)c2cccn2c2cccnc21)NCc1ccccc1F [#212]
45
NS(=O)(=O)c1ccc(CCNC(=O)c2ccc(Cn3c(=S)[nH]c4ccc(Br)cc4c3=O)cc2)cc1 [#216]
55
CNC(=S)NNC(=O)c1csc(-c2cccs2)n1 [#226]
40

Requested read-out: inhibition at 100 µM. Entry: Cc1cc(C)c2c(c1)[nH]c1nnc(SCC(=O)NCc3cccs3)nc12 [#220]
50

====

tested.on: SHP-2 PTP domain GST fusion protein (Homo sapiens)
Sequence (Q06124 247-517 limits assumed): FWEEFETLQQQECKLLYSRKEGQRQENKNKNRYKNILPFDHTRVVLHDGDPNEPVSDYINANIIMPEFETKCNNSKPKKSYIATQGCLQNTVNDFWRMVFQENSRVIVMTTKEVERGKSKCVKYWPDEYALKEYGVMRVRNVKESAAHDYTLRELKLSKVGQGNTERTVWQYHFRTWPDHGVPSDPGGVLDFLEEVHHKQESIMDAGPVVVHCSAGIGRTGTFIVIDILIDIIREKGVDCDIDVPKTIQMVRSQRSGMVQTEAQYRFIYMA
assay.protocol: fluorescence titration (quenching of SHP-2 fluorescence)
Format: binding
Parameters: Purified SHP-2 PTP domain GST-fusion protein was diluted into 20 mM Tris-HCl; made in house
study.conditions: SHP-2 protein 3 μM, excitation 295 nm
endpoint: quenching of SHP-2 fluorescence

CSc1ccc(C2C(C#N)=C(N)Oc3[nH]nc(-c4ccccc4Cl)c32)cc1 (centres unmarked)
strong quenching
Cc1cc(C)c2c(c1)[nH]c1nnc(SCC(=O)NCc3cccs3)nc12
strong quenching
NS(=O)(=O)c1ccc(CCNC(=O)c2ccc(Cn3c(=S)[nH]c4ccc(Br)cc4c3=O)cc2)cc1
strong quenching

====

tested.on: GST-TC-PTP (Homo sapiens)
Construct: purchased Biomol International, L.P. (Plymouth Meeting, Pa.)
Sequence (P17706 whole entry): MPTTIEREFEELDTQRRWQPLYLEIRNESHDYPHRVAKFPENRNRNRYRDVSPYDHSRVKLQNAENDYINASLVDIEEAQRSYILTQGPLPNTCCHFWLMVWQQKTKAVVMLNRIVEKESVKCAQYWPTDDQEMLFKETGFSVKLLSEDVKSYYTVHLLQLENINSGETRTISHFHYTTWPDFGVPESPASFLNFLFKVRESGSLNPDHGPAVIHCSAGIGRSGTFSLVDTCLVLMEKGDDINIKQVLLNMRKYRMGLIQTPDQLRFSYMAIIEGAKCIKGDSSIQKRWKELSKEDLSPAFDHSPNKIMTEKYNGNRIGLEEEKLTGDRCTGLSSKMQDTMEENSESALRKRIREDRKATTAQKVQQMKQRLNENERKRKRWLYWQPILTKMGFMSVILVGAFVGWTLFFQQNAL
assay.protocol: in vitro phosphatase assay, TC-PTP
Assay type: biochemical
endpoint: pIC50
# pIC50 is unitless: minus log10 of the molar concentration; print number only

Fill in the blank: the reported pIC50 of Cc1cc(C)c2[nH]c3nc(SCC(=O)Nc4cccc5ccccc45)nnc3c2c1 is ____.
4.40

====

tested.on: GST-SHP-1 (Homo sapiens)
Sequence (P29350 whole entry): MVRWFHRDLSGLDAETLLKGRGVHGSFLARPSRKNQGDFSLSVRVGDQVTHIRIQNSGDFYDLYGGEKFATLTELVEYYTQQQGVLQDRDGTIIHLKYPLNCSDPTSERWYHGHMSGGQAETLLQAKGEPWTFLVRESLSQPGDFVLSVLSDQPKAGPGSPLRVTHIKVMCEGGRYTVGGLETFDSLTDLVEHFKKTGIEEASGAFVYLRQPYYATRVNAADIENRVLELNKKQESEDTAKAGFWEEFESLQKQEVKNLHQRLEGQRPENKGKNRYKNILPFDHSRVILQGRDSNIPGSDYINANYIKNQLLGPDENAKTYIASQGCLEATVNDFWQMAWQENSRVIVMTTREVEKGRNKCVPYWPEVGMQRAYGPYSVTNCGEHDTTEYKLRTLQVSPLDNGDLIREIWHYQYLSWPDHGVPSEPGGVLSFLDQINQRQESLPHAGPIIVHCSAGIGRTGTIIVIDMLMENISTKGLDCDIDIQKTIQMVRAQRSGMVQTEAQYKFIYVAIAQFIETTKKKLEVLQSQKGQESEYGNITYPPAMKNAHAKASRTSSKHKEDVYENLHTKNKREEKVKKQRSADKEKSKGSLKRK
endpoint: IC50

Notebook entry, GST-SHP-1 (Homo sapiens) assay: IC50 of Cc1cc(C)c2[nH]c3nc(SCC(=O)Nc4cccc5ccccc45)nnc3c2c1 = ?
37.7 µM

Data origin: patent US8673913B2
